Please respond with reported ERα RBA (relative binding affinity) for every item in the list.
- assayed_system: purified full-length human ERα (Homo sapiens)
- Construct: using purified full-length human ERα and ERβ
- Sequence (P03372 whole entry): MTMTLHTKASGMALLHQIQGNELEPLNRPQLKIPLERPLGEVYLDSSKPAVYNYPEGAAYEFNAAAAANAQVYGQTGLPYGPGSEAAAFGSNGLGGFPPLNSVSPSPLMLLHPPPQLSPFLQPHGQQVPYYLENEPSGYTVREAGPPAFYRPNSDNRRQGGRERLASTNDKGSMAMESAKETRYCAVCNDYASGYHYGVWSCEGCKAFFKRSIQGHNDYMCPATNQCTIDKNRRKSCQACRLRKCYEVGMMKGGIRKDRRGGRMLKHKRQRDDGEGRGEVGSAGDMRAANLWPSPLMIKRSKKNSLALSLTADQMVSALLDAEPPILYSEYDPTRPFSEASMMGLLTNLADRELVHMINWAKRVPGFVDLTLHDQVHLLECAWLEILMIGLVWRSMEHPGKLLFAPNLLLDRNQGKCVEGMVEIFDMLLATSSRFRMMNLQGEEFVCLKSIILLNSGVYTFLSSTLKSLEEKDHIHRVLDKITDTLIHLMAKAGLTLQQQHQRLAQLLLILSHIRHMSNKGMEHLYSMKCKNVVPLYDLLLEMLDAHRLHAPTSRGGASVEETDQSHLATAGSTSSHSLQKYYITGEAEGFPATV
- assay_protocol: competitive radiometric binding assay, relative binding affinity (RBA)
- recorded_conditions: relative to estradiol = 100
One number for each entry.

Worked set:
compound	ERα RBA (relative binding affinity)
Cc1cc(-c2ccc3c(c2)CCC3Cl)cc(C)c1O (stereo not shown) [Compound 8]	0.001
Cc1cc(-c2ccc(CO)cc2C(F)(F)F)cc(C)c1O [Compound 28]	0.008
Cc1cc(-c2cccc(CCO)c2)cc(C)c1O [Compound 44]	0.001
Oc1ccc(-c2ccc3c(c2)CCC3O)cc1 (stereo not shown) [Compound 32]	0.005

Quick one: give me ERα RBA (relative binding affinity) for each item below, same order please.
1. Cc1cc(-c2ccc(CO)c(F)c2)cc(C)c1O [Compound 25]
2. Oc1c(Cl)cc(-c2ccc3c(c2)CCC3O)cc1Cl (stereo not shown) [Compound 63]

[0.003, 0.005]
